Reference source: ChEMBL document CHEMBL1142171

The entries below are paired with their reported Fold change.
System: Human immunodeficiency virus 1
Procedure Summary: Antiviral activity against HIV1 A4 isolate with protease I84A mutation in HEK 293 cells relative to wild type
Format: functional, HEK293
I only need the number, thanks.

CC(C)c1nc(CN(C)C(=O)N[C@H](C(=O)N[C@@H](Cc2ccccc2)C[C@H](O)[C@H](Cc2ccccc2)NC(=O)OCc2cncs2)C(C)C)cs1	42
CC(C)(C)NC(=O)[C@@H]1CN(Cc2cccnc2)CCN1C[C@@H](O)C[C@@H](Cc1ccccc1)C(=O)N[C@H]1c2ccccc2C[C@H]1O.O	58

Next, consider the following molecule.
Form field Fold change, entry `CC(C)(C)NC(=O)[C@@H]1C[C@@H]2CCCC[C@@H]2CN1C[C@@H](O)[C@H](Cc1ccccc1)NC(=O)[C@H](CC(N)=O)NC(=O)c1ccc2ccccc2n1` : 241

----------
System: Human immunodeficiency virus 1
Procedure Summary: Antiviral activity against HIV1 C2 isolate with protease I84C mutation in HEK 293 cells relative to wild type
Type: functional, HEK293
Readout Type: Fold change
I only need the number, thanks.

Here's what some known entries look like.
CC(C)(C)NC(=O)[C@@H]1C[C@@H]2CCCC[C@@H]2CN1C[C@@H](O)[C@H](Cc1ccccc1)NC(=O)[C@H](CC(N)=O)NC(=O)c1ccc2ccccc2n1	14
CC(C)c1nc(CN(C)C(=O)N[C@H](C(=O)N[C@@H](Cc2ccccc2)C[C@H](O)[C@H](Cc2ccccc2)NC(=O)OCc2cncs2)C(C)C)cs1	8.6
CC(C)(C)NC(=O)[C@@H]1CN(Cc2cccnc2)CCN1C[C@@H](O)C[C@@H](Cc1ccccc1)C(=O)N[C@H]1c2ccccc2C[C@H]1O.O	1.3
Cc1c(O)cccc1C(=O)N[C@@H](CSc1ccccc1)[C@H](O)CN1C[C@H]2CCCC[C@H]2C[C@H]1C(=O)NC(C)(C)C	59

Record for `CC(C)CN(C[C@@H](O)[C@H](Cc1ccccc1)NC(=O)O[C@H]1CCOC1)S(=O)(=O)c1ccc(N)cc1` under target or system Human immunodeficiency virus 1: Fold change reported as 5.4

----------
Test system: Human immunodeficiency virus 1
Procedure Summary: Antiviral activity against HIV1 A13 isolate with protease I84A mutation in HEK 293 cells relative to wild type
Type: functional, HEK293
The entries below are paired with their reported Fold change.

Cc1c(O)cccc1C(=O)N[C@@H](CSc1ccccc1)[C@H](O)CN1C[C@H]2CCCC[C@H]2C[C@H]1C(=O)NC(C)(C)C	196
CC(C)(C)NC(=O)[C@@H]1C[C@@H]2CCCC[C@@H]2CN1C[C@@H](O)[C@H](Cc1ccccc1)NC(=O)[C@H](CC(N)=O)NC(=O)c1ccc2ccccc2n1	1000
CC(C)(C)NC(=O)[C@@H]1CN(Cc2cccnc2)CCN1C[C@@H](O)C[C@@H](Cc1ccccc1)C(=O)N[C@H]1c2ccccc2C[C@H]1O.O	178

Form field Fold change, entry `COC(=O)N[C@H](C(=O)N[C@@H](Cc1ccccc1)[C@@H](O)CN(Cc1ccc(-c2ccccn2)cc1)NC(=O)[C@@H](NC(=O)OC)C(C)(C)C)C(C)(C)C` : 700

----------
Tested on: Human immunodeficiency virus 1
Procedure Summary: Antiviral activity against HIV1 A15 isolate with protease I84A mutation in HEK 293 cells relative to wild type
Format: functional, HEK293
Respond with Met for Fold change values of 100 and above, Not met for values below.

COC(=O)N[C@H](C(=O)N[C@@H](Cc1ccccc1)[C@@H](O)CN(Cc1ccc(-c2ccccn2)cc1)NC(=O)[C@@H](NC(=O)OC)C(C)(C)C)C(C)(C)C	Met
CC(C)(C)NC(=O)[C@@H]1CN(Cc2cccnc2)CCN1C[C@@H](O)C[C@@H](Cc1ccccc1)C(=O)N[C@H]1c2ccccc2C[C@H]1O.O	Met
CC(C)CN(C[C@@H](O)[C@H](Cc1ccccc1)NC(=O)O[C@H]1CCOC1)S(=O)(=O)c1ccc(N)cc1	Not met

Determine whether measured Fold change meets or exceeds 100 for `Cc1c(O)cccc1C(=O)N[C@@H](CSc1ccccc1)[C@H](O)CN1C[C@H]2CCCC[C@H]2C[C@H]1C(=O)NC(C)(C)C`
Met

Determine whether measured Fold change meets or exceeds 100 for `CC(C)(C)NC(=O)[C@@H]1C[C@@H]2CCCC[C@@H]2CN1C[C@@H](O)[C@H](Cc1ccccc1)NC(=O)[C@H](CC(N)=O)NC(=O)c1ccc2ccccc2n1`
Met

Determine whether measured Fold change meets or exceeds 100 for `CC(C)c1nc(CN(C)C(=O)N[C@H](C(=O)N[C@@H](Cc2ccccc2)C[C@H](O)[C@H](Cc2ccccc2)NC(=O)OCc2cncs2)C(C)C)cs1`
Met

Determine whether measured Fold change meets or exceeds 100 for `Cc1cccc(C)c1OCC(=O)N[C@@H](Cc1ccccc1)[C@@H](O)C[C@H](Cc1ccccc1)NC(=O)[C@H](C(C)C)N1CCCNC1=O`
Not met
